- TGT: Rabbit Aorta (Oryctolagus cuniculus, UniProt Q6WQI8)
- Construct: contraction by 11,9-(epoxymethano)PGH2 (U-46619)
- Sequence (Q6WQI8 1-233): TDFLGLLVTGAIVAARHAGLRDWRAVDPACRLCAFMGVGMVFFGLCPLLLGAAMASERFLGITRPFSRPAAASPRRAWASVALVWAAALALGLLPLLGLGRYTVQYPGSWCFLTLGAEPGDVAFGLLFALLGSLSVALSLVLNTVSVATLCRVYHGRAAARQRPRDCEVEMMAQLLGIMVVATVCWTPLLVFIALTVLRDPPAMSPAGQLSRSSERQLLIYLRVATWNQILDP
- ASSAY_PROTOCOL: Rabbit Aorta System: antagonism of contraction of aorta strips induced by 11,9-(epoxymethano) PGH2
- Assay type: cell-based
- CONDITION_SUMMARY: vs 11,9-(epoxymethano) PGH2; compound added 30 mins before; Gaddum-Schild; read-out: AFFINITY CONSTANTS (KB) Rabbit Aorta (converted)
MEASUREMENT_NAME: Kb (nM)
Enter your answer as a number in nM; do not include the unit.

O=C(O)CCC/C=C\C[C@H]1[C@H]2CC[C@H](C2)[C@@H]1C=NNC(=O)Cc1ccccc1 (relative stereo) ... 1490
O=C(O)CCC/C=C\C[C@H]1[C@H]2CC[C@H](C2)[C@@H]1C=NNC(=O)C(c1ccccc1)c1ccccc1 (relative stereo) ... 256
O=C(O)CCC/C=C\C[C@H]1[C@H]2CC[C@H](C2)[C@@H]1C=NNC(=O)CC(c1ccccc1)c1ccccc1 (relative stereo) ... 1520
O=C(O)CCC/C=C\C[C@H]1[C@H]2CC[C@H](C2)[C@@H]1C=NNC(=O)c1ccc(F)cc1 (relative stereo) [drawing 24] ... 1280
O=C(O)CCC/C=C\C[C@H]1[C@H]2CC[C@H](C2)[C@@H]1C=NNC(=O)Nc1ccccc1 (relative stereo) [drawing 31] ... 769

Q. # input compound: COc1ccc(C(=O)NN=C[C@H]2[C@@H]3CC[C@@H](C3)[C@@H]2C/C=C\CCCC(=O)O)cc1 (relative stereo) ; wanted: its Kb
A. 5000

Q. # input compound: O=C(O)CCCCCC[C@H]1[C@H]2CC[C@H](C2)[C@@H]1C=NNC(=O)Nc1ccccc1 (relative stereo) ; wanted: its Kb
A. 1200

Q. # input compound: O=C(O)CCC/C=C\C[C@H]1[C@H]2CC[C@H](C2)[C@@H]1C=NNC(=O)COc1ccccc1 (relative stereo) ; wanted: its Kb
A. 2700

====

// log10 of Kb lookup, one value per entry
- TGT: Human Platelets (Homo sapiens, UniProt P21731)
- Construct: Platelet-rich plasma is obtained from fresh, citrated human blood; endogenous in cells; host or cells: human platelets (platelet-rich plasma from citrated blood)
- Sequence (P21731 whole entry): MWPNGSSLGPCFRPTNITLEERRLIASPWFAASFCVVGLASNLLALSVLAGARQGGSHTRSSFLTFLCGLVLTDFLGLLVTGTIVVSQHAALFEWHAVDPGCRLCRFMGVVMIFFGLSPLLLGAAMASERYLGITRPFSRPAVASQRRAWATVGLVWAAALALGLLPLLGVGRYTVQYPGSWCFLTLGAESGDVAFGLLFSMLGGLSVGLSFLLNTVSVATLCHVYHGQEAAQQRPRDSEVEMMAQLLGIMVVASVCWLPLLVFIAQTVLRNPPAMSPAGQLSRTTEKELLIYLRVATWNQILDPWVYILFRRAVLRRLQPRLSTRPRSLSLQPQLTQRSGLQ
- ASSAY_PROTOCOL: Human Platelet System: antagonism of platelet aggregation induced by 11,9-(epoxymethano) PGH2
- Format: cell-based
- CONDITION_SUMMARY: vs 11,9-epoxymethano PGH2 (1×10^-7 to 5×10^-7 M); compound added 5 minutes before; Gaddum-Schild; read-out: AFFINITY CONSTANTS (KB) Human Platelets (converted)
Annotation: log10 of Kb, nM basis.

O=C(O)CCC/C=C\C[C@H]1[C@H]2CC[C@H](C2)[C@@H]1C=NNC(=O)COc1ccccc1 (relative stereo) ... 4.28
CN(C)c1ccc(C(=O)NN=C[C@H]2[C@@H]3CC[C@@H](C3)[C@@H]2C/C=C\CCCC(=O)O)cc1 (relative stereo) ... 4.00
O=C(O)CCC/C=C\C[C@H]1[C@H]2CC[C@H](C2)[C@@H]1C=NNC(=O)c1ccc(F)cc1 (relative stereo) [drawing 24] ... 3.68
O=C(O)CCC/C=C\C[C@H]1[C@H]2CC[C@H](C2)[C@@H]1C=NNC(=O)C(c1ccccc1)c1ccccc1 (relative stereo) ... 3.14
O=C(O)CCC/C=C\C[C@H]1[C@H]2CC[C@H](C2)[C@@H]1C=NNC(=O)CC(c1ccccc1)c1ccccc1 (relative stereo) ... 2.70

Q. # input molecule: O=C(O)CCC/C=C\C[C@H]1[C@H]2CC[C@H](C2)[C@@H]1C=NNC(=O)Nc1ccccc1 (relative stereo) [drawing 31] ; wanted: its log10 of Kb
A. 3.16

Q. # input molecule: O=C(O)CCCCCC[C@H]1[C@H]2CC[C@H](C2)[C@@H]1C=NNC(=O)Nc1ccccc1 (relative stereo) ; wanted: its log10 of Kb
A. 3.16
